tested on: K562 (chronic myelogenous leukaemia); assay: Effect of compounds on tumor cell lines (assay of Latham et al.), K562; assay type: cell-based; conditions: K562 cells, 96 hours after treatment, 1 μM to 100 μM; read-out: K 562 potency (IC50)
Measurement kind: IC50

Worked set:
Molecule | Observed result
O=C(C(=Cc1cccnc1)SCc1ccc(Cl)cc1)c1ccc(Br)cc1 [Example 321] | 1 to 10 µM
O=C(C(=Cc1ccc([N+](=O)[O-])c(O)c1)SCc1ccc(Br)cc1)c1ccc([N+](=O)[O-])cc1 [Example 158] | 1 to 10 µM
CCN(CC)CCNC(=O)c1ccc(C(=O)C(=Cc2ccc(F)c([N+](=O)[O-])c2)SCc2ccc(Br)cc2)cc1 [Example 313] | ≤ 1 µM
Cc1ccc(C=C(SCc2ccc(Cl)cc2)C(=O)c2ccc([N+](=O)[O-])cc2)s1 [Example 231] | 25 to 50 µM
COc1ccc(C=C(SCc2ccccc2Cl)C(=O)c2ccc(Cl)cc2)c(OC)c1OC [Example 125] | 1 to 10 µM

Your task in this section: give IC50 for each listed record.
1. O=C(C(=Cc1ccc(Br)cc1)SCc1ccc(F)cc1)c1ccc(Br)cc1 [Example 253]
2. O=C(C(=Cc1c(O)cc(O)cc1O)SCc1ccc(Cl)cc1Cl)c1ccc(Cl)cc1 [Example 115]

1: 1 to 10 µM; 2: > 100 µM

Hello, I am looking for reported IC50 with K562 (chronic myelogenous leukaemia) for O=C(C(=Cc1ccc([N+](=O)[O-])c(O)c1)SCc1ccc(Br)cc1)c1c(F)c(F)c(F)c(F)c1F [Example 152] . Could you help?
1 to 10 µM

* * *

Assignment: determine reported IC50 for the given compounds.
System: DU145 (prostate cancer)
Experiment: Effect of compounds on tumor cell lines (assay of Latham et al.), DU145
Type: cell-based
Details: DU145 cells, 96 hours after treatment, 1 μM to 100 μM; read-out: DU 145 potency (IC50)
Experimental: The effect of the compounds of the invention on tumor cells was determined by the assay described by Latham et al., Oncogene 12:827-837 (1996). Tumor cells K562 (chronic myelogenous leukaemia) or DU145 (prostate cancer) were plated in 12-well dishes at a cell density of 2.5×10^4 cells well. […] When necessary, the total number of viable cells was determined by trypsinizing the wells and counting the number of viable cells, as determined by trypan blue exclusion, using a hemacytometer. […]

Compound | IC50
CCN(CC)CCNC(=O)c1c(C)[nH]c(C=C(SCc2ccc(C)cc2)C(=O)c2ccc(C(=O)O)cc2)c1C [Example 284] | 50 to 100 µM
Cc1ccc(CSC(=Cc2c[nH]c3ccc(Cl)cc23)C(=O)c2ccc(Cl)cc2)cc1 [Example 296] | 1 to 10 µM
O=C(C(=Cc1ccc(N2CCN(CCO)CC2)c([N+](=O)[O-])c1)SCc1ccc(F)cc1)c1ccc(F)cc1 [Example 330] | 1 to 10 µM
COc1cc(/C=C(/SCc2ccc(Br)cc2)C(=O)c2ccc(Br)cc2)cc([N+](=O)[O-])c1O [Example 174] | 25 to 50 µM
Cc1ccc(CSC(=Cc2ccc(O)cc2)C(=O)c2ccc(Cl)cc2)cc1 [Example 292] | 10 to 25 µM

Your task in this section: give IC50 for each listed record.
1. Cc1ccsc1C=C(SCc1ccc(F)cc1)C(=O)c1ccc(Br)cc1 [Example 246]
2. COc1cc(OC)c(OC)cc1C=C(SCc1ccc(Br)cc1)C(=O)c1ccc([N+](=O)[O-])cc1 [Example 305]
3. O=C(O)c1ccc(C(=O)/C(=C\c2ccc(Cl)c([N+](=O)[O-])c2)SCc2ccc(C(F)(F)F)cc2)cc1 [Example 350]
4. COc1ccc(C(=O)/C(=C\c2ccc(O)c([N+](=O)[O-])c2)SCc2ccc(Br)cc2)cc1 [Example 183]
5. O=C(C(=Cc1cccnc1)SCc1ccc(Cl)cc1)c1ccc(Br)cc1 [Example 321]
6. O=C(/C(=C\c1ccc(O)c([N+](=O)[O-])c1)SCc1ccc(Br)cc1)c1ccc([N+](=O)[O-])c(Cl)c1 [Example 179]
7. O=C(O)c1ccc(C(=O)C(=Cc2ccc(O)c([N+](=O)[O-])c2)SCc2ccc(F)cc2)cc1 [Example 262]
8. O=C(/C(=C\c1ccc(F)c([N+](=O)[O-])c1)SCc1ccc(F)cc1)c1ccc(F)cc1 [Example 341]

1. 50 to 100 µM
2. 10 to 25 µM
3. 1 to 10 µM
4. 10 to 25 µM
5. 1 to 10 µM
6. 1 to 10 µM
7. > 100 µM
8. 1 to 10 µM

Your task in this section: give IC50 for each listed record.
1. O=C(C(=Cc1cccc(Cl)c1Cl)SCc1ccc(Cl)cc1Cl)c1ccc(Cl)cc1 [Example 114]
2. COc1cc(C(=O)/C(=C\c2ccc(O)c([N+](=O)[O-])c2)SCc2ccc(Br)cc2)cc(OC)c1OC [Example 178]
3. O=C(O)c1ccc(C(=O)/C(=C\c2ccc(Cl)c([N+](=O)[O-])c2)SCc2ccc(Br)cc2)cc1 [Example 168]
4. O=C(C(=Cc1ccc(O)cc1)SCc1ccc(Cl)cc1)c1ccc(Br)cc1 [Example 221]
5. CCOc1ccc(C=C(SCc2ccc(Cl)c(Cl)c2)C(=O)c2ccc(Cl)cc2)cc1OC [Example 143]
6. Cc1ccc(C=C(SCc2ccc(Cl)cc2)C(=O)c2ccc(Br)cc2)s1 [Example 229]

1 to 10 µM
1 to 10 µM
1 to 10 µM
10 to 25 µM
25 to 50 µM
> 100 µM

Your task in this section: give IC50 for each listed record.
1. COc1cc(OC)c(C=C(SCc2ccccc2Cl)C(=O)c2ccc(Cl)cc2)c(OC)c1 [Example 126]
2. O=C(O)c1ccc(C(=O)/C(=C\c2ccc(F)c([N+](=O)[O-])c2)SCc2ccc(Br)cc2)cc1 [Example 172]
3. COc1cc(OC)c(C=C(SCc2ccc(F)cc2)C(=O)c2ccc(Cl)cc2)c(OC)c1 [Example 234]

50 to 100 µM
1 to 10 µM
10 to 25 µM
